Tested on: Staphylococcus aureus MW2 delta-mecA (mecA-)
Assay: IC50 (growth, competition assay)
Conditions: fluorescent label: DsRed; cefoxitin: subinhibitory
Quick reference for IC50 among some compounds

Some solved entries appear below for comparison.
[
  {
    "compound": "COc1ccc(CCN(C)CCCOc2ccc(S(=O)(=O)c3c(C(C)C)n(C)c4ccccc34)cc2)cc1OC",
    "assayedTarget": "Staphylococcus aureus MW2 delta-mecA (mecA-)",
    "recordedResult": "< 9.85 µM"
  },
  {
    "compound": "Cc1cc(Nc2ncc(Cl)c(Nc3ccccc3S(=O)(=O)C(C)C)n2)c(OC(C)C)cc1C1CCNCC1",
    "assayedTarget": "Staphylococcus aureus MW2 delta-mecA (mecA-)",
    "recordedResult": "< 9.85 µM"
  },
  {
    "compound": "COc1ccc2c(c1)OC[C@@H](Cc1ccc(OC)c(OC)c1)[C@H]2O [TETRAHYDROSAPPANONE A TRIMETHYL ETHER]",
    "assayedTarget": "Staphylococcus aureus MW2 delta-mecA (mecA-)",
    "recordedResult": "> 150 µM"
  }
]

// moving on: another record for IC50
Prompt: Record CC(C)(c1ccc(O)cc1)c1ccc(O)cc1 : what is its IC50 with Staphylococcus aureus MW2 delta-mecA (mecA-)?
Completion: < 9.85 µM
